# System: HS 578T breast
# Assay comment: NCI tumour cell line growth inhibition, 48 h
Experimental endpoint: TGI

Known TGI results, listed for orientation:
N=C(N=C(N)N)N1CCN(c2ccncc2)CC1 ... > 1000 µM
Clc1cc2c(c(CSC3=NCN(CC4CC4)CN3)c1)OCOC2 ... > 100 µM
CCC1C(c2cccc(OC)c2O)c2cc3c(cc2OC1N1CCCC1)OCO3 (configuration not stated) ... 29.9 µM
COc1cccc(-c2ccc3c4c2O[C@H]2c5[nH]c6ccccc6c5C[C@@]5(O)[C@@H](C3)N(CC3CC3)CC[C@]425)c1 ... 3.33 µM
O=C1C=C(Br)C(=O)C12CCc1ccccc12 (configuration not stated) ... > 82.5 µM

The following molecules each have a reported value; give each one's TGI.
1. COc1cc2c(c(OC)c1OC)-c1ccc(SC)c(=O)cc1[C@@H](OC(C)=O)CC2
2. NNc1cccc(/C=C/c2ccccc2)cc1=O

Response line:
1: > 100 µM; 2: > 100 µM

* * *

For each record, write down the corresponding TGI.
# System: SNB-19 CNS
# Assay comment: NCI tumour cell line growth inhibition, 48 h

Known TGI results, listed for orientation:
Clc1ccc2[nH]cc(-c3nc(-c4c[nH]c5ncccc45)cs3)c2c1 ... 43.9 µM
CCOC(=O)C(CO)c1nc2c([nH]c1=O)c(=O)n(C)c(=O)n2C (stereo not drawn) ... > 100 µM
COc1cc2noc(-c3ccccc3)c2cc1OC ... > 100 µM
C[C@]1(CO)[C@H]2CC[C@@]34C=C[C@@](CO)(CC[C@H]3[C@]2(C)CC[C@H]1O)C4 ... > 100 µM
ClC(Cl)(Cl)C1=N[C@H]2[C@H](Br)[C@@H]3O[C@@H](c4ccccc4)[C@H](c4ccccc4)O[C@@H]3[C@H]2O1 ... 63.9 µM
CN(C(=O)Cc1ccc(Cl)c(Cl)c1)[C@H]1CCCC[C@@H]1[N+]1(C)CCCC1 ... > 100 µM
COc1cccc(-c2ccc3c4c2O[C@H]2c5[nH]c6ccccc6c5C[C@@]5(O)[C@@H](C3)N(CC3CC3)CC[C@]425)c1 ... 4.23 µM
COc1cc(/C=C2\CC3C4CC=C5C[C@@H](OC(C)=O)CC[C@]5(C)C4CC[C@]3(C)C2=O)ccc1OCCCn1ccnc1 (stereo partly drawn) ... > 50 µM
Cc1ccc(OCC2OC(n3cnc4nc(Cl)nc(Cl)c43)CC2Oc2ccc(C)cc2)cc1 (stereo not drawn) ... 30.1 µM
O=C1C=C(Br)C(=O)C12CCc1ccccc12 (stereo not drawn) ... 66.6 µM

The following compounds each have a reported value; give each one's TGI.
1. CC1(C)OC(=O)C=C([O-])O1.CC1(C)OC(=O)C=C([O-])O1.O=S(=O)([O-])c1ccc([O-])c2ncccc12.O=S(=O)([O-])c1ccc([O-])c2ncccc12.[Ti+4]
2. O=C(N=C1SCCN1C(=O)C(C(F)(F)F)C(F)(F)F)C(C(F)(F)F)C(F)(F)F

Response line:
1: > 100 µM; 2: > 100 µM

The following compounds each have a reported value; give each one's TGI.
1. Nc1nnc2cc(Cl)ccc2n1
2. CN(CN1C(=O)C2Cc3ccccc3CN2C1=O)c1ccccn1 (stereo not drawn)
3. Cc1cc(C)c(C[N+](C)(C)C)c(C)c1C
4. NNc1nc2ccccc2c(=O)n1NC(=O)C(=O)Nc1cccc(C(F)(F)F)c1
5. COc1cc(C2SCC(=O)N2c2ccc(-n3c(-c4ccccc4)nc4ccccc4c3=O)cc2)ccc1O (stereo not drawn)
6. CCOc1cc2c(NCCCN(CCO)CCO)ncnc2c(OCC)c1OCC

Response line:
["> 100 µM", "> 100 µM", "> 64.5 µM", "> 100 µM", "> 100 µM", "> 100 µM"]

The following compounds each have a reported value; give each one's TGI.
1. C=CCOCn1cnc2c(N)ncnc21
2. O=c1nc(Nc2cccc(Cl)c2)oc2cc(Cl)oc(=O)c12
3. N#Cc1cnc2cc(OC[C@@H](O)CO)c(NC(=O)CC3CSSC3)cc2c1Nc1ccc(OCc2cccc(F)c2)c(Cl)c1
4. N#Cc1c(-c2ccccc2)cc(-c2ccc(Nc3nc(Nc4ccc(Cl)cc4)nc(Nc4ccc(Cl)cc4)n3)cc2)nc1N

Response line:
1. > 100 µM
2. > 100 µM
3. 1.18 µM
4. > 100 µM

The following compounds each have a reported value; give each one's TGI.
1. COc1ccc(C(N)=O)cc1N=NN(C)C
2. CCOC(=O)C(Cc1c[nH]c2ccc(N(CCCl)CCCl)cc12)(NC(C)=O)C(=O)OCC

Response line:
1. > 100 µM
2. 312 µM

* * *

For each record, write down the corresponding TGI.
# System: MDA-N
# Assay comment: NCI tumour cell line growth inhibition, 48 h

Known TGI results, listed for orientation:
O=C(CN1CCN(Cc2ccccc2)CC1)N1CCCn2c1nc1ccccc1c2=O ... > 100 µM
OCCSCc1ccccc1 ... > 100 µM
COC(=O)c1cc(NC(=O)c2cc(NC(=O)c3cc([N+](=O)[O-])cn3C)cn2C)cn1C ... > 100 µM
CC(=O)N1CCc2c([nH]c3ccc(Br)cc23)C1c1ccccc1 (configuration not stated) ... > 10 µM
[Se]=P(c1ccccc1)(c1ccccc1)c1ccc(C(c2ccccc2)=P(c2ccccc2)(c2ccccc2)c2ccccc2)cc1 ... 4.57 µM

The following compounds each have a reported value; give each one's TGI.
1. COC(=O)C(CCc1ccccc1I)C1=CCC2(CC1)OCCO2 (configuration not stated)
2. O=c1c(SSc2coc3cc(F)ccc3c2=O)coc2cc(F)ccc12
3. CCCCNN
4. Clc1ccc(Cc2nc3ccc(CCN4CCN(c5ccccc5)CC4)cc3[nH]2)cc1
5. COC(=O)c1ccccc1C#CC#Cc1ccccc1C(=O)OC
6. Cc1ccsc1/C=N/Nc1cc(C)c2cccc(C)c2n1

Response line:
94.3 µM
34.3 µM
> 100 µM
30.6 µM
> 10 µM
> 100 µM

Prompt line: Need TGI, item CC(C)SC(C)(NC(=O)C1C(C)(C)CCC1(C)C)C(=O)O (configuration not stated)
Response line: > 100 µM

* * *

Observed GI50 values for SNB-75 CNS are listed in what follows.

O=c1nc(Nc2cccc(Cl)c2)oc2cc(Cl)oc(=O)c12 ... 6.96 µM

The following compounds each have a reported value; give each one's GI50.
1. O=C(c1ccc2ncc(-c3nc(NC4CC4)ncc3F)n2c1)N1CCOCC1
2. COc1ccccc1NC(=O)n1nc(N)c2ccccc21
3. CCOC(=O)c1[nH]c(-c2ccc(Cl)cc2)cc1-c1cccnc1

Response line:
1: 1.47 µM; 2: 37 µM; 3: 0.738 µM

* * *

For each record, write down the corresponding TGI.
# System: KM12 colon
# Assay comment: NCI tumour cell line growth inhibition, 48 h

Known TGI results, listed for orientation:
Cc1ccc(S(=O)(=O)/N=C(\NN)Nc2ccc(Cl)cc2)cc1 ... > 100 µM
COc1ccc(O[C@H](COCc2ccccc2)C[C@@H]2COC(C)(C)O2)cc1 ... > 100 µM

Okay, next one:
Prompt line: Need TGI, item CC1(C)OC(=O)C=C([O-])O1.CC1(C)OC(=O)C=C([O-])O1.O=S(=O)([O-])c1ccc([O-])c2ncccc12.O=S(=O)([O-])c1ccc([O-])c2ncccc12.[Ti+4]
Response line: > 100 µM

* * *

For each record, write down the corresponding TGI.
# Tested on: NCI/ADR-RES ovarian
# Assay comment: NCI tumour cell line growth inhibition, 48 h

CC(C)=CC(=O)O[C@H]1C(=O)O[C@@H]2C[C@H]3[C@H](C)C(=O)C(O[C@@H]4O[C@H](CO)[C@@H](O)[C@H](O)[C@H]4O)=C[C@]3(C)[C@H]3[C@@H](O)[C@H](O)[C@]4(C(=O)O)OC[C@]32[C@@H]14 ... > 100 µM

The following compounds each have a reported value; give each one's TGI.
1. CC1(C)N=C(C(N)=O)c2ncn(CCO)c2N1
2. NC(=O)c1cc(Br)cc(C2CCCCC2)c1O

Response line:
1: > 100 µM; 2: 23.9 µM

The following compounds each have a reported value; give each one's TGI.
1. C[C@]1(CO)[C@H]2CC[C@@]34C=C[C@@](CO)(CC[C@H]3[C@]2(C)CC[C@H]1O)C4
2. Cn1ncc2c(N)nc(N3CCCCC3)nc21
3. Cc1cc(O)c2c(c1O)C(=O)C13C(=C2O)C(=O)C2C(O)C1C1C(O)C3C(=O)C3=C(O)c4c(O)cc(C)c(O)c4C(=O)C321 (centres undefined)
4. Cc1c(C(=O)N2CCN(c3ccc([N+](=O)[O-])cc3)CC2)[n+](=O)c2cc(Cl)c(Cl)cc2n1[O-]
5. CC(C)SC(C)(NC(=O)C1C(C)(C)CCC1(C)C)C(=O)O (centres undefined)

Response line:
1: > 100 µM; 2: > 100 µM; 3: 12.2 µM; 4: 32.7 µM; 5: > 100 µM

The following compounds each have a reported value; give each one's TGI.
1. COc1cc(OC)c2c(O)c3c(cc2c1)CC(C)(C)CC3=O
2. CCN1C(=S)N(CC)C2C1NC(=S)N2/N=C/C=C/c1ccccc1 (centres undefined)
3. CC(C)C(C/C=C1\CC(CO)(COC(=O)c2ccccc2)OC1=O)C(C)C (centres undefined)
4. Cn1c(=O)c(Oc2ccccc2F)cc2cnc(NC3CCOCC3)nc21
5. CCC1C(c2cccc(OC)c2O)c2cc3c(cc2OC1N1CCCC1)OCO3 (centres undefined)
6. CN(C)c1nc(NC23CC4CC(CC(C4)C2)C3)nc(N(C)C)n1
7. NNc1cccc(/C=C/c2ccccc2)cc1=O

Response line:
1. > 100 µM
2. 12.6 µM
3. 45 µM
4. > 25 µM
5. 54.7 µM
6. > 100 µM
7. > 100 µM
